Entry source: paper PMC6150229

# protocol description: in vivo
# experimental conditions: male, Sprague-Dawley, rat, po, 8 g/kg, AUC0–t, sham group (SG) rats, oral administration of QSKL, plasma, mean ± SD, n = 6
measure: AUC(0-t)
The answer should read as a number with its unit following.

INPUT: So what's the measured AUC(0-t) for this one? COCC12CCC(OC)C34C5CC6(O)C(OC)C(O)C(O)(C5C6OC(=O)c5ccccc5)C(C(OC)C13)C4N(C)C2 (stereo not shown)
OUTPUT: 0.985 ng·h/mL

INPUT: So what's the measured AUC(0-t) for this one? COCC12CN(C)C3C4C(OC)C1C3(C(OC)CC2O)C1CC2(O)C(OC)C(O)C4(O)C1C2OC(=O)c1ccccc1 (stereo not shown)
OUTPUT: 5.82 ng·h/mL

INPUT: So what's the measured AUC(0-t) for this one? O=C(/C=C/c1ccc(O[C@@H]2O[C@H](CO)[C@@H](O)[C@H](O)[C@H]2O)cc1)c1ccc(O)cc1O
OUTPUT: 1.39 ng·h/mL

INPUT: So what's the measured AUC(0-t) for this one? COC[C@@]12CC[C@H](OC)[C@]34C(C([C@H](OC)[C@H]13)[C@]1(OC(C)=O)[C@H]3[C@@H](OC(=O)c5ccccc5)[C@](O)(C[C@H]34)[C@@H](OC)[C@@H]1O)N(C)C2
OUTPUT: 0.824 ng·h/mL
